assay.system: plasma purified human complement protein C3 (human) (UniProt P01024)
Sequence (P01024 23-667, chain 1 of 2): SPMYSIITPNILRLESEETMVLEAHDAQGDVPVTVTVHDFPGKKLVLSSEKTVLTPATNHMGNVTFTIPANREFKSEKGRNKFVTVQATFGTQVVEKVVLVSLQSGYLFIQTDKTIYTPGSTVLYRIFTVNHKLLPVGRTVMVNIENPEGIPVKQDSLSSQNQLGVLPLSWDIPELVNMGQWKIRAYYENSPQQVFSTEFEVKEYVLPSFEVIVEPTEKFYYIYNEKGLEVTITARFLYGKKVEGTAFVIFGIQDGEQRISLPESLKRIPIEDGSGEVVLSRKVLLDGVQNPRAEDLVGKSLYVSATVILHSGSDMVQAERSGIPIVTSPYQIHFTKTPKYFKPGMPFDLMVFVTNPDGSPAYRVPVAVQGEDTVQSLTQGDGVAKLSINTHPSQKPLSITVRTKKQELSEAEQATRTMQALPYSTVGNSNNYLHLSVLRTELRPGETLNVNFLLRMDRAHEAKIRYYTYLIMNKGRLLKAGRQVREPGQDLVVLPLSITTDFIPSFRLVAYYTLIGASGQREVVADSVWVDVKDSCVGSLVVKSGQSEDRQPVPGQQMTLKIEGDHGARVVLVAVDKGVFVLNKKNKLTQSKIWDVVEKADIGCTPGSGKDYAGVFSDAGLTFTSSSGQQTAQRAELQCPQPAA
Sequence (P01024 672-1663, chain 2 of 2): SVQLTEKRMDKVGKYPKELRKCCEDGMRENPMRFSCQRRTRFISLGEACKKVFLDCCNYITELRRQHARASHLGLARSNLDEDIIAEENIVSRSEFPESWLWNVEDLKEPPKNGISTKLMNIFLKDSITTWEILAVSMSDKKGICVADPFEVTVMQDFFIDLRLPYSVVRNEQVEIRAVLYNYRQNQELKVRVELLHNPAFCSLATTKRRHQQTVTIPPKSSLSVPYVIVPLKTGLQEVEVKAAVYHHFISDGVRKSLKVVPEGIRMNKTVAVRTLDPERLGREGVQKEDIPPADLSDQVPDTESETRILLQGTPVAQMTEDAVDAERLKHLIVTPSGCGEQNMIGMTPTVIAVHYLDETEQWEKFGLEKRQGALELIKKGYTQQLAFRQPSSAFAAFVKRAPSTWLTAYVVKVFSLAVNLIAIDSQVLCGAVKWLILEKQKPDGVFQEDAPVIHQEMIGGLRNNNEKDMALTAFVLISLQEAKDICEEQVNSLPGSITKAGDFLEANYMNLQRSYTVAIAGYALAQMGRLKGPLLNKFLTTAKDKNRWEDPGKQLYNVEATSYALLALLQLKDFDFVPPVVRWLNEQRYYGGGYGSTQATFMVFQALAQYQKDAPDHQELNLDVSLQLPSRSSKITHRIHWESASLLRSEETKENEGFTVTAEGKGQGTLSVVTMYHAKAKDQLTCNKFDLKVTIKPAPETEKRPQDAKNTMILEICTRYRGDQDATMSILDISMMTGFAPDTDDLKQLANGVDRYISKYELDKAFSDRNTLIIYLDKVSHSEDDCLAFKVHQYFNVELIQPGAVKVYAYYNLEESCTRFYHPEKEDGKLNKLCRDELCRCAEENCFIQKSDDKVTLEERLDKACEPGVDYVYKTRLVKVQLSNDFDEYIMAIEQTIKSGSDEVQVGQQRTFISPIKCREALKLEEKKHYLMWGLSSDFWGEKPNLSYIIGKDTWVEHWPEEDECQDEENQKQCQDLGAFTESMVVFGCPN
assay.text: cell-based or functional assay
value.kind: EC50 hC3 cleavage (nM)

[[record]]
binder = "MTSP-1 protease domain F97L/ins97aM/T98N/F99L/C122S/Q175T/Q192T/D217S (enzyme) VVGGTDADEGEWPWQVSLHALGQGHICGASLISPNWLVSAAHCYIDDRGFRYSDPTQWTAFLGLHDQSQRSAPGVQERRLKRIISHPFFNDLMNLDYDIALLELEKPAEYSSMVRPISLPDASHVFPAGKAIWVTGWGHTQYGGTGALILQKGEIRVINQTTCENLLPQTITPRMMCVGFLSGGVDSCTGDSGGPLSSVEADGRIFQAGVVSWGSGCAQRNKPGVYTRLPLFRDWIKENTGV"
experimental_value = 256

[[record]]
binder = "MTSP-1 protease domain F97V/F99L/C122S/G151N/Q175L/Q192S/D217H (enzyme) VVGGTDADEGEWPWQVSLHALGQGHICGASLISPNWLVSAAHCYIDDRGFRYSDPTQWTAFLGLHDQSQRSAPGVQERRLKRIISHPFFNDVTLDYDIALLELEKPAEYSSMVRPISLPDASHVFPAGKAIWVTGWGHTQYGGTNALILQKGEIRVINQTTCENLLPQLITPRMMCVGFLSGGVDSCSGDSGGPLSSVEADGRIFQAGVVSWGHGCAQRNKPGVYTRLPLFRDWIKENTGV"
experimental_value = 91.6

[[record]]
binder = "MTSP-1 protease domain I41D/D96E/F99L/C122S/G151N/Q192T/D217E (enzyme) VVGGTDADEGEWPWQVSLHALGQGHDCGASLISPNWLVSAAHCYIDDRGFRYSDPTQWTAFLGLHDQSQRSAPGVQERRLKRIISHPFFNEFTLDYDIALLELEKPAEYSSMVRPISLPDASHVFPAGKAIWVTGWGHTQYGGTNALILQKGEIRVINQTTCENLLPQQITPRMMCVGFLSGGVDSCTGDSGGPLSSVEADGRIFQAGVVSWGEGCAQRNKPGVYTRLPLFRDWIKENTGV"
experimental_value = 27.6


Every entry's value here was drawn from patent US20240018502A1.
